Exercise: state measured MIC Aspergillus niger for each of the substances provided.
- Tested on: Aspergillus niger NBRC 9455
- setup.conditions: Table 4; two tests, first/second value where not identical
No end group written: not given here.

Find the recorded MIC Aspergillus niger belonging to MLKLIFLHRLKRMRKRLKRK-NH2 [SRP-10] and report it.
8/16

Next substance: RLKRMRKRLKRKLRLW-NH2 [SRP-17]
8/16

Param item: IFLHRLKRMRKRLKRKLRLW-OH [SRP-7]
8/16

Now the substance LKLIFLHRLKRMRKRLKRKL-NH2 [SRP-11]
8/32

Okay, and GRLKRMGKRLKRKIQKWARW-NH2 [SRP-14] ?
4/8

# iterate: LIFLHRLKRMRKRLKRKLRL-NH2 [SRP-12]
8/16

Try this substance too: KLIFLRELRRLRKRLKRKLR-NH2 [SRP-16]
8/16

How about this substance: MLKLIFLHRLKRMRKRLKRKLR-NH2 [SRP-9]
16/32

// query: RLKRMRKRLKRKLRLWHRKRYK-NH2 [SRP-8]
16/32

Also GRLKRMGERLKRKIQKWIRW-NH2 [SRP-15] ?
8/16
